Tested on: UO-31
Experiment: NCI tumour cell line growth inhibition, 48 h
The source made the active and inactive calls. No stated cut-off is given here; in the data, active = GI50 up to about 1.1 µM and inactive = higher. Numbered stars: 1 amine (or outer) side, 2 acyl side, 3 side chain; on linkers, the order of the positions; unused ones are H or OH. Square brackets hold non-standard residues; d marks the D form. Peptide text beside a SMILES is read from it. * marks the point of attachment. X30 = CC(=O)N(C)SCC(N[*:1])C(=O)[*:2]; Cbz = O=C(OCc1ccccc1)*; Boc = CC(C)(C)OC(=O)*; Bn = c1ccc(C*)cc1
I would appreciate it if you answered using one of these outcomes: 1 for active, 0 for inactive

[ask] Fill in: this test's call for COc1cccc(C2C(C(=O)Nc3cc(=O)n(C)c(=O)n3C)=C(C)NC(C)=C2C(=O)Nc2cc(=O)n(C)c(=O)n2C)c1O is ___
[reply] 0

[ask] Fill in: this test's call for C[C@@H]1OC(=O)N2CCCC(=C3SCCCS3)C12 (stereo partly drawn) is ___
[reply] 0

[ask] Fill in: this test's call for CN(C)/C=N/S(=O)(=O)c1nn2c(C=O)c(-c3ccccc3)nc2s1 is ___
[reply] 0

[ask] Fill in: this test's call for O=Cc1ccc2c(c1)CC1(Cc3ccccc3C1)C2 is ___
[reply] 0

[ask] Fill in: this test's call for COc1cc(OC)cc(Oc2nc3cc(N)cc(N)c3nc2-c2ccccc2)c1 is ___
[reply] 0

[ask] Fill in: this test's call for CN(C)Cc1c(O)ccc2c1c1c(n2C)C(=O)c2ccccc2C1=O is ___
[reply] 0

[ask] Fill in: this test's call for c1ccc2c(NCCCCCCCCNc3cccc4ccccc34)cccc2c1 is ___
[reply] 0

[ask] Fill in: this test's call for COC(=O)[C@]1(c2cc3ccccc3[nH]2)CC2CNC1C1OC(C)(C)OC21 (stereo partly drawn) is ___
[reply] 0

[ask] Fill in: this test's call for CC(Oc1ccccc1Cl)C(=O)NN1C(=O)CC(=O)N(c2ccccc2)C1=S (stereo not drawn) is ___
[reply] 0

[ask] Fill in: this test's call for C[C@@H]1C[C@H](O)[C@]2(O)O[C@@H]3C[C@@]4(C=O)[C@@H](CC=C5[C@@H]4CC[C@]4(C)[C@@H](C6=CC(=O)OC6)CC[C@]54O)C[C@H]3O[C@@H]2O1 is ___
[reply] 1

[ask] Fill in: this test's call for CC1OC2OC3C(OCC(O)C3O)OC(=O)[C@]34CCC(C)(C)CC3C3=CCC5[C@@]6(C)C[C@H](O)[C@H](OC7OC(CO)C(O)C(O)C7OC7OC(COC(=O)CC(C)(O)CC(=O)OC1C(OC1OC(CO)C(O)C(O)C1O)C2O)C(O)C(O)C7O)[C@@](C)(CO)C6CC[C@@]5(C)[C@]3(C)CC4 (stereo partly drawn) is ___
[reply] 0

[ask] Fill in: this test's call for CN1C(=O)c2c(ccc3c2OCO3)C2C(O)Cc3cc4c(cc3C21)OCO4 (stereo not drawn) is ___
[reply] 0

[ask] Fill in: this test's call for O=C(O)Cc1ccc(N2N=C(c3ccccc3)CC2=O)cc1 is ___
[reply] 0

[ask] Fill in: this test's call for COC(=O)C(Cc1ccccc1)NC(=O)C(CS)NC(=O)OC(C)(C)C (stereo not drawn) (Boc-Cys-Phe-OMe; configuration not given here) is ___
[reply] 0

[ask] Fill in: this test's call for COc1ccc2c(c1)c1c3c(ccc4ncn2c43)N(CCO)CCN=1 is ___
[reply] 1

[ask] Fill in: this test's call for O=C1C(N2C(=O)c3ccccc3C2=O)CN1C(COCc1ccccc1)c1ccc(OCc2ccccc2)cc1 (stereo not drawn) is ___
[reply] 0

[ask] Fill in: this test's call for CC1(C)OC[C@@H]([C@H](C=O)OCc2ccccc2)O1 is ___
[reply] 0

[ask] Fill in: this test's call for CC(=O)Nc1ccc2c(C)c3c(nc2n1)[nH]c1ccccc13 is ___
[reply] 0

[ask] Fill in: this test's call for C/C(=N/Nc1ccc([N+](=O)[O-])cc1[N+](=O)[O-])C(CC(C(=O)Nc1ccccc1C)/C(C)=N\Nc1ccc([N+](=O)[O-])cc1[N+](=O)[O-])C(=O)Nc1ccccc1C (stereo not drawn) is ___
[reply] 0

[ask] Fill in: this test's call for Cc1ccc(Cc2n[nH]c(=O)n2-c2ccccc2)cc1 is ___
[reply] 0

[ask] Fill in: this test's call for CN(C)c1ccc2c(NCCCCCCNc3ccnc4cc(N(C)C)ccc34)ccnc2c1 is ___
[reply] 0

[ask] Fill in: this test's call for Clc1ccc(CCN2CCN(CCCc3ccccc3)CC2)cc1Cl is ___
[reply] 0

[ask] Fill in: this test's call for CC[C@@]1(O)C(=O)OCc2c1c(Cl)c1n(c2=O)Cc2cc3ccccc3nc2-1 is ___
[reply] 0

[ask] Fill in: this test's call for O=c1[nH]cc(F)c(=O)n1C1OC(CO)C(O)C1O (stereo not drawn) is ___
[reply] 0

[ask] Fill in: this test's call for NC(=O)c1cc2ccccc2c(/N=N/c2ccccc2)c1O is ___
[reply] 0

[ask] Fill in: this test's call for CC(=O)N(C)SCC(NC(=O)C(Cc1ccccc1)NC(=O)OCc1ccccc1)C(=O)NC(Cc1ccccc1)C(=O)NC(Cc1c[nH]c2ccccc12)C(=O)NC(CCCCNC(=O)OCc1ccccc1)C(=O)NC(C(=O)NC(CSN(C)C(C)=O)C(=O)NC(C(N)=O)C(C)OCc1ccccc1)C(C)OCc1ccccc1 (stereo not drawn) (Cbz-F[X30]FWK(Cbz)T(Bn)[X30]T(Bn)-NH2; configuration not given here) is ___
[reply] 0

[ask] Fill in: this test's call for CC(C)(C)SC1=CCC[C@@H](P(=O)(c2ccccc2)c2ccccc2)[C@@H]2CCC[C@@H]12 is ___
[reply] 0

[ask] Fill in: this test's call for Cc1cc2nc(C#N)c(N3CCN(c4ccc([N+](=O)[O-])cc4)CC3)nc2cc1C is ___
[reply] 0

[ask] Fill in: this test's call for O=C1OC(c2ccc(O)c(Cl)c2)(c2ccc(O)c(Cl)c2)c2ccc(Br)c3cccc1c23.O=C1OC(c2ccc(O)c(Cl)c2)(c2ccc(O)c(Cl)c2)c2cccc3c(Br)ccc1c23 is ___
[reply] 0

[ask] Fill in: this test's call for CC1(C)OCC(CO)(Nc2nc(N3CC3)nc(N3CC3)n2)CO1 is ___
[reply] 0

[ask] Fill in: this test's call for N#CC1CC2(C(=O)C1=O)c1ccccc1-c1ccccc12 (stereo not drawn) is ___
[reply] 0

[ask] Fill in: this test's call for CC(=O)Oc1ccccc1[C@H]1CC(=O)C[C@H](c2ccccc2OC(C)=O)C12C(=O)c1ccccc1C2=O is ___
[reply] 0

[ask] Fill in: this test's call for CCOP(=O)(Cc1ccc(CP(=O)(OCC)OCC)n1C)OCC is ___
[reply] 0
